Measured 50% inhibition concentration, Regnase-1 phosphorylation by IKKβ (AlphaScreen) of individual entries
Biological target: T1, C-terminal domain-deleted human Regnase-1 (amino acids 1 to 546) with N-terminal FLAG tag and C-terminal BirA … (human, UniProt Q5D1E8 1-546)
T1 sequence: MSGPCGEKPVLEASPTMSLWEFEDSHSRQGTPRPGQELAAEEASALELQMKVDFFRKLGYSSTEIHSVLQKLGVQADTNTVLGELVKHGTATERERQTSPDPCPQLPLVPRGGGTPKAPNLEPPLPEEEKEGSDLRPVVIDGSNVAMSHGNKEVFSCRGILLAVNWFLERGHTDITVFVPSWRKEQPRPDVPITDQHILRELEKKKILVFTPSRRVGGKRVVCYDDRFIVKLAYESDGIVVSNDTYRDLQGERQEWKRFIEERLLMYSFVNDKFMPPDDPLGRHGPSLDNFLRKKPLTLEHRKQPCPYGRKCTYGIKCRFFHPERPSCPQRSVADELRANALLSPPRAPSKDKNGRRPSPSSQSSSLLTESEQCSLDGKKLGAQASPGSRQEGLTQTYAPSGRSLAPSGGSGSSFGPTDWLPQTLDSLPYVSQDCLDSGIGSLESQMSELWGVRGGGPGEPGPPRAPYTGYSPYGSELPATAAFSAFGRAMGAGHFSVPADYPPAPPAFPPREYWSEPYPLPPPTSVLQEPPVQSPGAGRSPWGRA
Assay: cell-based or functional assay
Positions of bridges follow the written chain, without caps; N, C: chain ends. Non-standard residues stand in square brackets, D forms with d. *: point of attachment. NMeA = CN[C@@H](C)C(=O)O; Pyrrolidide = C1CCN(*)C1
REPORTED_METRIC: 50% inhibition concentration, Regnase-1 phosphorylation by IKKβ (AlphaScreen) (µM)

BINDER | VALUE_UNITS | REPORTED_MEASUREMENT
[NMeA]YIWDFFGDLD-Pyrrolidide (lactam N-11) [PP4] | µM | 8.3
XRFRQWKWVYPD (HELM PEPTIDE1{[meA].R.F.R.Q.W.K.W.V.Y.P.D.[C1CCN([*:1])C1]}$PEPTIDE1,PEPTIDE1,1:R1-12:R3$$$V2.0; SMILES CC(C)[C@@H]1NC(=O)[C@H](Cc2c[nH]c3ccccc23)NC(=O)[C@H](CCCCN)NC(=O)[C@H](Cc2c[nH]c3ccccc23)NC(=O)[C@H](CCC(N)=O)NC(=O)[C@H](CCCNC(=N)N)NC(=O)[C@H](Cc2ccccc2)NC(=O)[C@H](CCCNC(=N)N)NC(=O)[C@H](C)N(C)C(=O)C[C@@H](C(=O)N2CCCC2)NC(=O)[C@@H]2CCCN2C(=O)[C@H](Cc2ccc(O)cc2)NC1=O) [PP13] | µM | 43.2
XVFYKIWYNWD (HELM PEPTIDE1{[meA].V.F.Y.K.I.W.Y.N.W.D.[C1CCN([*:1])C1]}$PEPTIDE1,PEPTIDE1,1:R1-11:R3$$$V2.0; SMILES CC[C@H](C)[C@@H]1NC(=O)[C@H](CCCCN)NC(=O)[C@H](Cc2ccc(O)cc2)NC(=O)[C@H](Cc2ccccc2)NC(=O)[C@H](C(C)C)NC(=O)[C@H](C)N(C)C(=O)C[C@@H](C(=O)N2CCCC2)NC(=O)[C@H](Cc2c[nH]c3ccccc23)NC(=O)[C@H](CC(N)=O)NC(=O)[C@H](Cc2ccc(O)cc2)NC(=O)[C@H](Cc2c[nH]c3ccccc23)NC1=O) [PP19] | µM | 12.6
XRYAVYQWIYPD (HELM PEPTIDE1{[meA].R.Y.A.V.Y.Q.W.I.Y.P.D.[C1CCN([*:1])C1]}$PEPTIDE1,PEPTIDE1,1:R1-12:R3$$$V2.0; SMILES CC[C@H](C)[C@@H]1NC(=O)[C@H](Cc2c[nH]c3ccccc23)NC(=O)[C@H](CCC(N)=O)NC(=O)[C@H](Cc2ccc(O)cc2)NC(=O)[C@H](C(C)C)NC(=O)[C@H](C)NC(=O)[C@H](Cc2ccc(O)cc2)NC(=O)[C@H](CCCNC(=N)N)NC(=O)[C@H](C)N(C)C(=O)C[C@@H](C(=O)N2CCCC2)NC(=O)[C@@H]2CCCN2C(=O)[C@H](Cc2ccc(O)cc2)NC1=O) [PP12] | µM | 27
